# Tested on: Escherichia coli TOP10
# assayProtocol: shrunken log2 fold change of peptide-encoding DNA abundance (4.5 h post-induction vs induction); higher = less antimicrobial activity (less host growth inhibition)
# experimentalContext: time post-induction: 4.5 h; library: site-saturation at positions 5, 18, 19, 20

seqText	targetOrTestSystem	shrunken log2 fold change
RRIRMRPPRLPRPRPRPMGFPRP	Escherichia coli TOP10	-0.0135
RRIRARPPRLPRPRPRPERTPRP	Escherichia coli TOP10	0.143
RRIRPRPPRLPRPRPRPSKFPRP	Escherichia coli TOP10	-0.494
RRIRSRPPRLPRPRPRPTQDPRP	Escherichia coli TOP10	0.445

----------
# Tested on: Escherichia coli TOP10
# assayProtocol: shrunken log2 fold change of peptide-encoding DNA abundance (4.5 h post-induction vs induction); higher = less antimicrobial activity (less host growth inhibition)
# experimentalContext: time post-induction: 4.5 h; library: site-saturation at positions 5, 18, 19, 20
Listing of recorded shrunken log2 fold change by entry.
recordedEndpoint: shrunken log2 fold change

seqText	recordedEndpoint	val
RRIRIRPPRLPRPRPRPQSRPRP	shrunken log2 fold change	-0.0532
RRIRARPPRLPRPRPRPFWSPRP	shrunken log2 fold change	0.061
RRIRQRPPRLPRPRPRPYTYPRP	shrunken log2 fold change	-0.157
RRIRFRPPRLPRPRPRPHSLPRP	shrunken log2 fold change	-0.169
RRIRQRPPRLPRPRPRPWKPPRP	shrunken log2 fold change	-0.00884
RRIRERPPRLPRPRPRPCVEPRP	shrunken log2 fold change	-0.11
RRIRFRPPRLPRPRPRPKMWPRP	shrunken log2 fold change	0.348

----------
# Tested on: Escherichia coli TOP10
# assayProtocol: shrunken log2 fold change of peptide-encoding DNA abundance (4.5 h post-induction vs induction); higher = less antimicrobial activity (less host growth inhibition)
# experimentalContext: time post-induction: 4.5 h; library: site-saturation at positions 5, 18, 19, 20
recordedEndpoint: shrunken log2 fold change

seqText	val
RRIRSRPPRLPRPRPRPLMSPRP	-0.0126
RRIRKRPPRLPRPRPRPFPEPRP	0.273
RRIRVRPPRLPRPRPRPWSDPRP	-0.138
RRIRGRPPRLPRPRPRPRVDPRP	1.57
RRIRPRPPRLPRPRPRPSKEPRP	-0.374

----------
# Test system: Escherichia coli TOP10;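 further: peptides expressed intracellularly from a pBAD plasmid library in pooled LB shake-flask culture, induced with 0.3% L-arabinose, DNA abundance read by NGS, three biological replicates, DESeq2 with apeglm shrinkage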
# assayProtocol: shrunken log2 fold change of peptide-encoding DNA abundance (4.5 h post-induction vs induction); higher = less antimicrobial activity (less host growth inhibition)
# experimentalContext: time post-induction: 4.5 h; library: site-saturation at positions 5, 18, 19, 20

seqText	targetOrTestSystem	shrunken log2 fold change
RRIRTRPPRLPRPRPRPDVYPRP	Escherichia coli TOP10	0.00573
RRIRCRPPRLPRPRPRPAFYPRP	Escherichia coli TOP10	-0.146
RRIRCRPPRLPRPRPRPKFDPRP	Escherichia coli TOP10	-0.0305
RRIRARPPRLPRPRPRPNKLPRP	Escherichia coli TOP10	-0.206
RRIRVRPPRLPRPRPRPAERPRP	Escherichia coli TOP10	-0.0583
RRIRDRPPRLPRPRPRPFGYPRP	Escherichia coli TOP10	-0.342
RRIRARPPRLPRPRPRPKEGPRP	Escherichia coli TOP10	-0.00115
RRIRQRPPRLPRPRPRPEAPPRP	Escherichia coli TOP10	0.6
RRIRVRPPRLPRPRPRPSWTPRP	Escherichia coli TOP10	-0.0613
RRIRCRPPRLPRPRPRPCMGPRP	Escherichia coli TOP10	-0.241
RRIRWRPPRLPRPRPRPIRPPRP	Escherichia coli TOP10	-0.116
RRIRERPPRLPRPRPRPMWIPRP	Escherichia coli TOP10	-0.102
RRIRDRPPRLPRPRPRPLRNPRP	Escherichia coli TOP10	0.767
RRIRYRPPRLPRPRPRPTDQPRP	Escherichia coli TOP10	-0.175
RRIRSRPPRLPRPRPRPCIKPRP	Escherichia coli TOP10	-0.0801
